target or test system: Aminopeptidase N (Sus scrofa, UniProt P15145)
Sequence (P15145 whole entry): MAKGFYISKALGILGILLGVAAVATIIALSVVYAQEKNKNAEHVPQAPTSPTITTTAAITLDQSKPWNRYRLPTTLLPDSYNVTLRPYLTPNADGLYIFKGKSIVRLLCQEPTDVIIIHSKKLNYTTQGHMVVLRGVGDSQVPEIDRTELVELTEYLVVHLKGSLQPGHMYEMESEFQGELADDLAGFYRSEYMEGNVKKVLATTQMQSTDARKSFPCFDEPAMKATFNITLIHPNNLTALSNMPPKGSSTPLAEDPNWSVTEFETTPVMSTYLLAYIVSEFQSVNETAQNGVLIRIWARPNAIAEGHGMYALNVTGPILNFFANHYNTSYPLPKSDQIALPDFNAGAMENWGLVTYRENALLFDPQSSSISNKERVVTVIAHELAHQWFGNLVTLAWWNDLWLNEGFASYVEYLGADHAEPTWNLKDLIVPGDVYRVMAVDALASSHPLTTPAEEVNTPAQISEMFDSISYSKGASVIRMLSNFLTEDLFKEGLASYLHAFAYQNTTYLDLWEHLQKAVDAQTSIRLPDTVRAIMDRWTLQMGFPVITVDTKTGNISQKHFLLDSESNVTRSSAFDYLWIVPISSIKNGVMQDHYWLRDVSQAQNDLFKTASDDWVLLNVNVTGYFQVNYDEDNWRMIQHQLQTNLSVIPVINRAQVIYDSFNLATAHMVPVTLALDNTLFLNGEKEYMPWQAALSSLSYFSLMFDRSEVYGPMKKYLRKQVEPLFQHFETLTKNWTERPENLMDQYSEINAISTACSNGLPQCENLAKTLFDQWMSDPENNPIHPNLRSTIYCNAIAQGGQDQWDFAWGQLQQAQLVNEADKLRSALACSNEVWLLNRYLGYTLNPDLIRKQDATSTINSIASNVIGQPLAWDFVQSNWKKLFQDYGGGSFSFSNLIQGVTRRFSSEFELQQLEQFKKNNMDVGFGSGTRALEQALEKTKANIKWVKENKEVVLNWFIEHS
test readout: IC50 (µM)

| smi | target or test system | test readout | value observed |
| --- | --- | --- | --- |
| O=C(/C=C/c1ccccc1)N[C@H](CC(=O)NCc1ccccc1)C(=O)O | Aminopeptidase N (Sus scrofa, UniProt P15145) | IC50 | 207 |
| CCCCCCCCCCCCNC(=O)C[C@@H](NC(=O)/C=C/c1ccccc1)C(=O)O | Aminopeptidase N (Sus scrofa, UniProt P15145) | IC50 | 962 |
| CCCCCCCCNC(=O)C[C@@H](NC(=O)/C=C/c1ccccc1)C(=O)O | Aminopeptidase N (Sus scrofa, UniProt P15145) | IC50 | 232 |
| O=C(/C=C/c1ccccc1)N[C@H](CC(=O)Nc1ccc(Cl)cc1)C(=O)O | Aminopeptidase N (Sus scrofa, UniProt P15145) | IC50 | 349 |
| CCCCCNC(=O)C[C@@H](NC(=O)/C=C/c1ccccc1)C(=O)O | Aminopeptidase N (Sus scrofa, UniProt P15145) | IC50 | 204 |
